Target: T1, recombinant human TIGIT (human, UniProt Q495A1 22-141, limits assumed)
T1 construct: recombinant human TIGIT used in Carterra SPR; also called hTIGIT
T1 sequence (looked up): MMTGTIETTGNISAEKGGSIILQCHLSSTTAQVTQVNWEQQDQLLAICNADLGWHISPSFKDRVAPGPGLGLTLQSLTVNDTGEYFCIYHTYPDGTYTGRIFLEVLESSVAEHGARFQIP
Test: SPR Carterra, average
I'd appreciate it if you marked entries class 1 when koff is lower than 0.004 s⁻¹ and class 0 when it is not.

Q) Does the reported koff of TIGIT-SC81 (Fc fusion, VHH-Fc fusion in assay) VHH: EVQLVESGGGLVQPGGSLRLSCAASGRSFKDDAMGWFRQAPGKEREFVAAISWSGDSTHYADSVKGRFTISADNSKNTAYLQMNSLKPEDTAVYYCARWVWASGTYWIDYWGQGTLVTVSS stay below 0.004 s⁻¹?
A) class 1

Q) Please let me know if TIGIT-SC179 (Fc fusion, VHH-Fc fusion in assay) VHH: EVQLVESGGGLVQPGGSLRLSCAASGFTFSPSWMGWFRQAPGKEREWVASVLRGGYTWYADSVKGRFTISADNSKNTAYLQMNSLKPEDTAVYYCASEVASGETDYWGQGTLVTVSS shows koff below 0.004 s⁻¹.
A) class 1

Q) A record lists TIGIT-SC27 (Fc fusion, VHH-Fc fusion in assay) VHH: EVQLVESGGGLVQPGGSLRLSCAASGLTFSNYVMGWFRQAPGKEREVVAGILSDGRELYADSVKGRFTISADNSKNTAYLQMNSLKPEDTAVYYCARDVFGEGHWGQGTLVTVSS . Is its koff below 0.004 s⁻¹?
A) class 0

Q) Dear colleague, could you confirm whether koff of TIGIT-SC71 (Fc fusion, VHH-Fc fusion in assay) VHH: EVQLVESGGGLVQPGGSLRLSCAASGSIRSLNAMGWFRQAPGKEREFVAAINWDSARTYYADSVKGRFTISADNSKNTAYLQMNSLKPEDTAVYYCARWSAKRHSDTMTYYMDVWGQGTLVTVSS falls below 0.004 s⁻¹? Thanks.
A) class 0

Q) Identify whether the binder TIGIT-SC168 (Fc fusion, VHH-Fc fusion in assay) VHH: EVQLVESGGGLVQPGGSLRLSCAASGFTFDRSWMGWFRQAPGKEREWVASVLRGGYAWYADSVKGRFTISADNSKNTAYLQMSSLKPEDTAVYYCAREGSGYASDYWGQGTLVTVSS records koff below 0.004 s⁻¹.
A) class 1

Q) Record TIGIT-SC109 (Fc fusion, VHH-Fc fusion in assay) VHH: EVQLVESGGGLVQPGGSLRLSCAASGRDISSYIMGWFRQAPGKERELVAIIDTNGDDTLYADSAKGRFTISADNSKNTAYLQMNSLKPEDTAVYYCANGGRVWWAFDYWGQGTLVTVSS : is its koff strictly below 0.004 s⁻¹?
A) class 0

Q) Determine whether this binder shows koff lower than 0.004 s⁻¹ (ties excluded): TIGIT-SC73 (Fc fusion, VHH-Fc fusion in assay) VHH: EVQLVESGGGLVQPGGSLRLSCAASGSSFSLADYAMGWFRQAPGKEREFVAAISYNVGTTYYADSVKGRFTISADNSKNTAYLQMNSLKPEDTAVYYCARWSAKRHSDTMTYYMDVWGQGTLVTVSS
A) class 1

Q) Is the reported koff for TIGIT-SC186 (Fc fusion, VHH-Fc fusion in assay) VHH: EVQLVESGGGLVQPGGSLRLSCAASGNTFSGGFMGWFRQAPGKEREYVASVLRGGYTWYADSVKGRFTISADNSKNTTYLQMNSLKPEDTAVYYCTTDRGYNWNYDWGQGTLVTVSS strictly below 0.004 s⁻¹?
A) class 0

Reference source for all entries: patent US20260184782A1
